# credit: patent US9120774B2

tested on: MCF-7 (estrogen receptor positive breast cancer cells); experiment: Anti-proliferation activity against MCF-7 cells (MTS/PMS); assay type: cell-based; details: Homo sapiens, MCF7; Table 12, aliphatic chain analogues; 72 hours; read-out: IC50 MCF-7
Measured attribute: IC50 (nM)

COc1cccc(-c2cc(C(=O)Nc3cc4cc(OC)c(OCCN(C)C)c(C)c4oc3=O)ccc2OC)c1 [KU-294] = 1290

A: COc1cccc(-c2cc(C(=O)Nc3cc4ccc(OCCCN(C)C)c(C)c4oc3=O)ccc2OC)c1 [KU-317]
B: COc1cccc(-c2cc(C(=O)Nc3cc4ccc(OCCCN(C)C)c(OC)c4oc3=O)ccc2OC)c1 [KU-319]
C: COc1cccc(-c2cc(C(=O)Nc3cc4ccc(OCCN(C)C)c(OC)c4oc3=O)ccc2OC)c1 [KU-292]
Provide the items ranked by increasing IC50. Form entry: ranked labels (order as requested).
A, B, C

====

system: PC-3 (androgen independent prostate cancer cells); assay: Anti-proliferation activity against PC-3 cells; type: cell-based; conditions: Homo sapiens, PC-3; Table 6; 72 hours, MTS/PMS; mean ± standard deviation; read-out: IC50 PC-3
pIC50: −log10 of the molar value.
Measured attribute: pIC50

CO[C@@H]1[C@@H](O)[C@@H](O)[C@H](Oc2c(OC(C)C)cc3cc(NC(=O)c4cc5ccccc5[nH]4)c(=O)oc3c2C)OC1(C)C [26k] = 4.92
CCCOc1cc2cc(NC(=O)c3cc4ccccc4[nH]3)c(=O)oc2c(C)c1O[C@@H]1OC(C)(C)[C@H](OC)[C@@H](O)[C@H]1O [26j] = 5.21

I: COc1cccc(-c2cc(C(=O)Nc3cc4c(OC)cc(O[C@@H]5OC(C)(C)[C@H](OC)[C@@H](O)[C@H]5O)c(C)c4oc3=O)ccc2OC)c1 [26d]
II: COc1cc2cc(NC(=O)c3cc4ccccc4[nH]3)c(=O)oc2c(C)c1O[C@@H]1OC(C)(C)[C@H](OC)[C@@H](O)[C@H]1O [26i]
Hey, between I and II which has a smaller measured pIC50? # answer = label of selected item
II

====

tested on: SkBr3 (Her2 overexpressing breast cancer cells); assay: Anti-proliferation activity against SkBr3 cells (MTS/PMS); assay type: cell-based; conditions: Table 8, unsaturated azasugar analogues; 72 hours; read-out: IC50 SKBr3
Measured attribute: pIC50
Quick note: pIC50 values are minus log10 of concentrations in mol/L.

Recorded pIC50 for CO[C@@H]1[C@@H](O)[C@@H](O)[C@H](Oc2ccc3cc(NC(=O)c4ccccc4N)c(=O)oc3c2C)OC1(C)C [18 KU-260] with SkBr3 (Her2 overexpressing breast cancer cells), please?
5.79

====

system: LN3 (metastatic human prostate cancer cells); test: Anti-proliferation activity against LN3 cells (MTS/PMS); assay type: cell-based; conditions: Homo sapiens; Table 10, azasugar analogues on 6-methoxy coumarin; 72 hours
pIC50: −log10 of the molar value.
Measured attribute: pIC50

COc1cccc(-c2cc(C(=O)Nc3cc4cc(OC)c(OC5CCCN(C)C5)c(C)c4oc3=O)ccc2OC)c1 (stereo not drawn) = 5.18
COc1cccc(-c2cc(C(=O)Nc3cc4cc(OC)c(OC5CCN(C)CC5)c(C)c4oc3=O)ccc2OC)c1 = 5.39
COc1cccc(-c2cc(C(=O)Nc3cc4cc(OC)c(OC5CCNCC5)c(C)c4oc3=O)ccc2OC)c1 = 5.28
